Every entry's value here was drawn from paper PMC10326263.

- Test system: MT-4 cells
- PROCEDURE_DETAILS: Cytotoxicity in mock-infected MT-4 cells, MTT method
- Format: cell-based
- PROTOCOL_CONDITIONS: mock-infected MT-4 cells
PARAMETER: CC50 (µM)
Please state the figure in µM; there is no need to write the unit.

// CC50 (MT-4 cells) for Cc1cc(C)cc(S(=O)(=O)c2c(C(=O)NCCCCNS(=O)(=O)c3cccnc3)[nH]c3ccc(Cl)cc23)c1 [R10L4] = 217

* * *

- System: HIV-1 mutant strain L100I
- PROCEDURE_DETAILS: microbe, parasite or virus in culture
- Type: cell-based
- PROTOCOL_CONDITIONS: Human immunodeficiency virus 1, MT4, read-out: EC50 L100I
With a cut-off of 500 nM, any EC50 strictly below it is called T; any EC50 meeting it or above is called F.

Observe how each entry below is paired with its result.
chem_smiles=Cc1cc(C)cc(S(=O)(=O)c2c(C(=O)NCCNS(=O)(=O)C3CC3)[nH]c3ccc(Cl)cc23)c1 category_label=T
chem_smiles=Cc1cc(C)cc(S(=O)(=O)c2c(C(=O)NCCCNS(=O)(=O)c3ccccc3F)[nH]c3ccc(Cl)cc23)c1 category_label=T
chem_smiles=Cc1cc(C)cc(S(=O)(=O)c2c(C(=O)NCCCCNS(=O)(=O)c3ccccc3)[nH]c3ccc(Cl)cc23)c1 category_label=T

Prompt line: # strict comparison: is reported EC50 < 500 nM? input = Cc1cc(C)cc(S(=O)(=O)c2c(C(=O)NCCCCNS(=O)(=O)c3ccc(Br)cc3)[nH]c3ccc(Cl)cc23)c1
Response line: T

Prompt line: # strict comparison: is reported EC50 < 500 nM? input = Cc1cc(C)cc(S(=O)(=O)c2c(C(=O)NCCNS(=O)(=O)c3ccc([N+](=O)[O-])cc3)[nH]c3ccc(Cl)cc23)c1
Response line: F

Prompt line: # strict comparison: is reported EC50 < 500 nM? input = Cc1cc(C)cc(S(=O)(=O)c2c(C(=O)NCCCCCNS(=O)(=O)c3cccs3)[nH]c3ccc(Cl)cc23)c1
Response line: T

Prompt line: # strict comparison: is reported EC50 < 500 nM? input = Cc1ccc(S(=O)(=O)NCCCNC(=O)c2[nH]c3ccc(Cl)cc3c2S(=O)(=O)c2cc(C)cc(C)c2)cc1
Response line: F

Prompt line: # strict comparison: is reported EC50 < 500 nM? input = Cc1cc(C)cc(S(=O)(=O)c2c(C(=O)NCCNS(=O)(=O)c3cccs3)[nH]c3ccc(Cl)cc23)c1
Response line: F

Prompt line: # strict comparison: is reported EC50 < 500 nM? input = Cc1cc(C)cc(S(=O)(=O)c2c(C(=O)NCCNS(=O)(=O)c3ccc(F)cc3)[nH]c3ccc(Cl)cc23)c1
Response line: T

Prompt line: # strict comparison: is reported EC50 < 500 nM? input = Cc1cc(C)cc(S(=O)(=O)c2c(C(=O)NCCNS(=O)(=O)c3ccc(Br)cc3)[nH]c3ccc(Cl)cc23)c1
Response line: F

Prompt line: # strict comparison: is reported EC50 < 500 nM? input = Cc1cc(C)cc(S(=O)(=O)c2c(C(=O)NCCCCNS(=O)(=O)c3ccccc3F)[nH]c3ccc(Cl)cc23)c1
Response line: T
